Provide the recorded folding stability dG unfold for the entries that follow.
- ASSAY OVERVIEW: folding stability dG unfold (combined trypsin and chymotrypsin); higher = more stable
Dear colleague, please return just the value in kcal/mol, with no unit written.

Looking up SAGLKIVEDIRKKLEEEGYDVKVKYEIKPEPKDGKYIITIEVTIKDEKGNEVPIGKETIVIPLEEYEKSSAG [r5_413_JUSTAS] , I found its folding stability dG unfold recorded as 2.28

Looking up SAGMTIIKIEFPDGSKATVDPTNPSTMTITDPNGNTTVLNLTGVEEAKKQLIETLKKETGLPVKKVEVESAG [r5_119_JUSTAS] , I found its folding stability dG unfold recorded as 1.14

Looking up SAGGSAGGSAMRLRLKVKPGEKVRIRVERDGKVYEFEVTVEEGADEIEIDLPPGVKRIEIEPSAGGSAGGSA [r18_124_TrROS_Hall] , I found its folding stability dG unfold recorded as 3.62

Looking up SAGGSAGGSAGGKPKVIVIEGMSLEEIKALLAELPEDVTIVVRLPDGSTRTLTVRLPEPSAGGSAGGSAGGS [r10_514_TrROS_Hall] , I found its folding stability dG unfold recorded as 1.48

---

Provide the recorded folding stability dG unfold for the entries that follow.
- ASSAY OVERVIEW: folding stability dG unfold from chymotrypsin proteolysis; higher = more stable
Dear colleague, please return just the value in kcal/mol, with no unit written.

Looking up SAGGMEKVKVRVFFIDEETGEPREVEVEATLEELRELIEKIPDKGRVLVKLELPDEERIVTLEELKERSAGG [r13_254_TrMRF] , I found its folding stability dG unfold recorded as 3.23

Looking up SAGGSAGGSAGMPKRKITKIETEELPPELIRVTITLPDGTPVPVVVSPDDEEVKAIIEKLSAGGSAGGSAGG [r11_122_JUSTAS] , I found its folding stability dG unfold recorded as 0.113

Looking up SAGGYKFTIIARFDSVEEAKEWVEEIIRDIFPDNGIEVEVEVETDPENGGVYVKATIEVPPPDPDDFSAGGS [r8_17_TrROS] , I found its folding stability dG unfold recorded as 4.36

Looking up SAGGSAGGSAGGSDKGQPRVEIPMPFFMPNPNYVIRITMEIDLDPNGQIREIDVEVYKFSAGGSAGGSAGGS [r4_75_TrROS] , I found its folding stability dG unfold recorded as 4.67

Looking up SAGGSAGGSAGASLKEELGFAEVLSRSPTPDTEPLLLKHPEGGELVTVEVDAATAVEWLESAGGSAGGSAGG [r11_630_JUSTAS] , I found its folding stability dG unfold recorded as 0.424

Looking up SAGGSAGGSAGGKVAIVTASPEKAKEIAKKAGIKDVIIIPKNKPELLGPNVDKVILVAEKSAGGSAGGSAGG [r7_381_TrMRF] , I found its folding stability dG unfold recorded as -1.94

Looking up SAGGSAGGWFYIMFPIPPGYKVEAEWKFPNGPKVKSEIHPDGPIMITIPPGMANMPDFEIKIEPSAGGSAGG [r6_237_TrROS] , I found its folding stability dG unfold recorded as 3.77

---

Provide the recorded folding stability dG unfold for the entries that follow.
- ASSAY OVERVIEW: folding stability dG unfold (combined trypsin and chymotrypsin); higher = more stable
Dear colleague, please return just the value in kcal/mol, with no unit written.

Looking up SAGGPPRTVTVFVNDPDGNTYTFTFSDSVPLSTVVANVSKTLGVPLTVDSVTVHPDGTVTITVTNPGSAGGS [r8_285_TrMRF] , I found its folding stability dG unfold recorded as 4.96

Looking up SAGGSAGGSAGGKEEEARKLAEELAKELGLEIVEVKVERTEKEVKVTIRIKKDGKEIEFSAGGSAGGSAGGS [r10_161_TrROS_Hall] , I found its folding stability dG unfold recorded as 1.29

Looking up SAGGSAGGSAKIRLIFKTEEEARKAIEALLPEGAKAKIKVEKRKDGKKYVVVEIEFKEEEESAGGSAGGSAG [r3_87_TrROS_Hall] , I found its folding stability dG unfold recorded as 3.57

Looking up SAGGSAGGSKRKIKVDDVEPPPNGFMRVTLEVDDGKPLVPINIPPGQTPSEVKDQVKDLVEELSAGGSAGGS [r12_798_TrROS] , I found its folding stability dG unfold recorded as 3.85

Looking up GSARFEASAFLAELPFPPQRVLVVLVRGEDGRVRLFVFFPDGSVVEFDLETGRVVRVIDLPDAPLPPGLLES [r1_409_TrMRF] , I found its folding stability dG unfold recorded as 3.39

Looking up SAGGSAGGSAGERLTADELRKLAEELGLPAEITVERKEDGTYTVTITVDGKTYKIEIKLDSAGGSAGGSAGG [r11_410_TrROS_Hall] , I found its folding stability dG unfold recorded as 3.16

Looking up SAGGSAKTVSIWIPDDLPNMPIEELIKEVMKAFPPGDEIKDIDVEPWPNGGYMYTFTVNGKEVIIWSAGGSA [r15_451_TrROS] , I found its folding stability dG unfold recorded as 1.78

Looking up SAGGSAGGSAGGSMYTLLSTENRPDPNSSKPVTTKTYKLPDGSTVVVTEYPDSVEEKPLVSAGGSAGGSAGG [r7_479_JUSTAS] , I found its folding stability dG unfold recorded as 0.182

Looking up MRLRLTFRLPDGTEFRVERVEVLRVEPRGDRVVIPVRAYFTPEERRRLEELIPGLRDRPPLVVEVEIVLTGS [r1_35_TrMRF] , I found its folding stability dG unfold recorded as 3.96

Looking up MRITLELEDGTRVEIEFERKEDGTLVVRIKVTRKDGKTVEIEVVVRSKDGKITPEELERALREALEELLKKS [r1_124_TrROS_Hall] , I found its folding stability dG unfold recorded as 4.21

Looking up SVFEMPIKLTLKRRDPDGKGRKVKVTIRIRFEMPPNLPPDDKNDPERRKMHQMMHSNMHERAESLADPLASA [r9_237_TrROS] , I found its folding stability dG unfold recorded as 1.67

Looking up SKEEEEEIEIEIVVPNLTEEEIKELAKELLEKKGYEVEEIEITEEELEELKNKKPGDEVVIKIKIKVKKKSA [r9_1163_TrROS_Hall] , I found its folding stability dG unfold recorded as 2.51

Looking up SAGGSAGGSAMILVPKEKLEEAAKKLNLNIVEVKPVPPGIEVAEVKVEGSEEQKKAFLEALLSAGGSAGGSA [r18_175_JUSTAS] , I found its folding stability dG unfold recorded as 0.0149
